# Tested on: prostate cancer PC3
# assayRemarks: In vitro cytotoxicity, Alamar blue assay, PC3
# Assay type: cell-based, human
# appliedConditions: Homo sapiens, Table 7, 72 h
propertyName: IC50 (µM)
Numbers only, in µM.

What value of measured IC50 is listed for CCn1c2c(c3ccccc31)Cc1c(CO)c(CO)c(C)n1C2 [Compound 33b] ?
2.66

----------
I'd be grateful if you could share measured IC50 for these entries.
# Tested on: glioma U87
# assayRemarks: In vitro cytotoxicity, Alamar blue assay, U87
# Format: cell-based, human
# appliedConditions: Homo sapiens, Table 7, 72 h
Hi, when you answer, please include the unit after the number. Thanks!

CCn1c2c(c3ccccc31)Cc1c(CO)c(CO)c(C)n1C2 [Compound 33b] :: 6.26 µM

Turning now to a further compound:
Fill in the blank: the reported IC50 of Cc1c(CO)c(CO)c2n1Cc1c(c3ccccc3n1C)C2 [Compound 33a] is ____.
6.54 µM

----------
# System: glioma U87
# assayRemarks: In vitro cytotoxicity, Alamar blue assay, U87
# Type: cell-based, human
# appliedConditions: Homo sapiens, Table 6, 72 h
Mark each entry yes if its IC50 sits below 20 µM, and no for all others.

Solved cases below.
COc1ccc(-c2c(CO)c(CO)c3sc4ccccc4n23)cc1 [Compound 18g] :: yes
OCc1c(CO)c2sc3ccccc3n2c1-c1ccc(Cl)cc1 [Compound 18c] :: no
OCc1c(CO)c2sc3ccccc3n2c1C1CC1 [Compound 18j] :: no
OCc1c(CO)c2sc3ccccc3n2c1-c1ccc(F)cc1 [Compound 18b] :: yes

Now consider a different compound.
Lab note: confirm whether the reported IC50 for this compound is below 20 µM, equality not counting. compound: OCc1c(CO)c2sc3ccccc3n2c1-c1ccc(F)c(F)c1 [Compound 18d]
yes

----------
# Tested on: prostate cancer PC3
# assayRemarks: In vitro cytotoxicity, Alamar blue assay, PC3
# Format: cell-based, human
# appliedConditions: Table 7, 72 h
propertyName: IC50 (µM)
Numbers only, in µM.

Would you mind telling me what IC50 value was observed for N.N.[Cl][Pt][Cl] [Cisplatin, reference compound] ?
4.71

----------
# Test system: human lymphoblastic leukemia (CCRF-CEM)
# assayRemarks: In vitro cytotoxicity, XTT assay, CCRF-CEM
# Format: cell-based
# appliedConditions: Homo sapiens, CCRF-CEM, Table 5, 72 h incubation, read-out: Cell Growth inhibition (IC50 μM) CCRF-CEM
propertyName: IC50 (µM)
Give bare numbers, in µM.

COc1ccc(-c2c(CO)c(CO)c3sc4ccccc4n23)cc1 [Compound 18g] :: 1.13
OCc1c(CO)c2sc3ccccc3n2c1-c1ccc(F)c(F)c1 [Compound 18d] :: 0.19
OCc1c(CO)c2sc3ccccc3n2c1-c1ccc(F)cc1 [Compound 18b] :: 1.06
OCc1c(CO)c2sc3ccccc3n2c1C1CC1 [Compound 18j] :: 0.97
OCc1c(CO)c2sc3ccccc3n2c1-c1ccc(Cl)cc1 [Compound 18c] :: 2.61

Continue with the compound presented below.
Look at this compound and give its reported IC50. Cc1c(CO)c(CO)c2sc3ccccc3n12 [Compound 18a]
0.97

----------
I'd be grateful if you could share measured IC50 for these entries.
# System: prostate cancer PC3
# assayRemarks: In vitro cytotoxicity, Alamar blue assay, PC3
# Type: cell-based, human
# appliedConditions: Table 6, 72 h

CC(C)NC(=O)OCc1c(COC(=O)NC(C)C)c2sc3ccccc3n2c1-c1ccc(F)c(F)c1 [Compound 20d] :: 29.6 µM
CC(C)NC(=O)OCc1c(-c2ccc(F)cc2)c2sc3ccccc3n2c1COC(=O)NC(C)C [Compound 20b] :: 24.2 µM
N.N.[Cl][Pt][Cl] [Cisplatin, reference compound] :: 4.71 µM

Items follow; give IC50 for each.
1. CCNC(=O)OCc1c(COC(=O)NCC)c2sc3ccccc3n2c1-c1ccc(Cl)cc1 [Compound 19c]
2. CC(C)NC(=O)OCc1c(COC(=O)NC(C)C)c2sc3ccccc3n2c1C1CC1 [Compound 20j]

13.8 µM
13.4 µM
